Tested on: OVCAR-8 ovarian
Test: NCI-60 one-dose screen, 48 h (100 = growth as untreated, 0 = no growth, -100 = all killed)
Conditions: 10 µM unless noted
About 83,000 compounds went through this panel and 20% of them were active in at least one assay; those are over-represented in the sample as a whole.
In this section we review reported growth values for a set of compounds.
Give the quantity in %, number only.

Past entries and their recorded results:
1. CCCCCCCCCCOC(C)=O	101
2. CC(=O)c1nn(-c2ccccc2)c(=Nc2ccccc2)cc1C	96.7
3. O=C1/C(=C/c2ccc(F)cc2)Cc2ccccc21	101
4. CCCCCN1C(=O)CCC1=O	94.4
5. COc1ccc(-c2cnc(SCC(=O)Nc3ccc(-c4nc5ccccc5s4)cc3)n2-c2ccc(OC)cc2)cc1	105

Entry CC1CN(CC(O)c2ccc(Br)cc2)CCO1 (stereo unspecified) : reported growth = ?
96.2
